For each of the sequences below, state its PBM binding z-score.
Test system: LXRa:RXRa (NR concentration 270 nM, RXRa partner concentration 90 nM)
Experiment: PBM binding z-score (relative to random genomic background probes); higher = stronger binding; sequences stand for … in GC…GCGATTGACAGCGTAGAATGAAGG
One number for each entry.

Some solved entries appear below for comparison.
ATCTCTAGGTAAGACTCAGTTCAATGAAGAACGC
1.03
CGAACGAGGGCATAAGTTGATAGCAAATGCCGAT
-0.0152

Value sought for every listed sequence: PBM binding z-score.
1. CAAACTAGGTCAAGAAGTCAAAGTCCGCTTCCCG
2. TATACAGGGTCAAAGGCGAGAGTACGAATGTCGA

[2.9, 6.18]

* * *

System: LXRa:RXRa (NR concentration 270 nM, RXRa partner concentration 90 nM)
Assay: PBM binding z-score (relative to random genomic background probes); higher = stronger binding; sequences stand for … in GC…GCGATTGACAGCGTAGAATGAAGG
measurement.type: PBM binding z-score
Answers are plain numbers.

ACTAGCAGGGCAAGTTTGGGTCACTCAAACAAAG
0.854
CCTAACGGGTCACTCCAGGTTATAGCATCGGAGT
7.24

Kindly consider the entry below.
# get_value(readout='PBM binding z-score', item= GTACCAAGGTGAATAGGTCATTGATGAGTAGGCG )
2.66

* * *

For each of the sequences below, state its PBM binding z-score.
System: PXR:RXRa (NR concentration 270 nM, RXRa partner concentration 90 nM)
Test: PBM binding z-score (relative to random genomic background probes); higher = stronger binding; sequences stand for … in GC…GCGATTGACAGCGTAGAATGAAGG
One number for each entry.

Some solved entries appear below for comparison.
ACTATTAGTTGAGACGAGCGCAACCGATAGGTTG
-0.542
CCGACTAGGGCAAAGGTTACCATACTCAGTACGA
2.23

Kindly consider the entry below.
Give PBM binding z-score (PXR:RXRa (NR concentration 270 nM, RXRa partner concentration 90 nM)) of the following sequence: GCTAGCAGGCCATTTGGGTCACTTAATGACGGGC
0.407

* * *

Tested on: LXRb:RXRa (NR concentration 270 nM, RXRa partner concentration 90 nM)
Assay: PBM binding z-score (relative to random genomic background probes); higher = stronger binding; sequences stand for … in GC…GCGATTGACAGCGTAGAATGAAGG
For each of the sequences below, state its PBM binding z-score.
Answers are plain numbers.

Some solved entries appear below for comparison.
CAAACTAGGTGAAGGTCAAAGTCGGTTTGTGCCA
3.48
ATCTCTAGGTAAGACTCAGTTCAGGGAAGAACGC
0.68
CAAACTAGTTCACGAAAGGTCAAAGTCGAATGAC
6.48
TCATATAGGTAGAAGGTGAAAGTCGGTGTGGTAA
1.16
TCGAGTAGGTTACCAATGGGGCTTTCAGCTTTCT
0.62
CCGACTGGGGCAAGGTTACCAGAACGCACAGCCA
0.501
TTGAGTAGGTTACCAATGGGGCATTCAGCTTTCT
1.21

Kindly consider the entry below.
# get_value(readout='PBM binding z-score', item= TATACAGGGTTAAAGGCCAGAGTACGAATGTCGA )
1.91

* * *

Test system: LXRa homodimer (NR concentration 270 nM)
Assay: PBM binding z-score (relative to random genomic background probes); higher = stronger binding; sequences stand for … in GC…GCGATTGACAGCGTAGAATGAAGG
measurement.type: PBM binding z-score
Numbers only.

Some solved entries appear below for comparison.
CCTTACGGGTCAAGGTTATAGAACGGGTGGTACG
0.401
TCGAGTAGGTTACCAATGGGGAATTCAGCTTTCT
-0.56
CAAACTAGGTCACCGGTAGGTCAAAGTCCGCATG
3.87
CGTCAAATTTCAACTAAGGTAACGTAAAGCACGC
0.483
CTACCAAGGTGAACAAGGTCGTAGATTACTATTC
-0.0649

Value sought for every listed sequence: PBM binding z-score.
1. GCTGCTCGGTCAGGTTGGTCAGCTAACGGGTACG
2. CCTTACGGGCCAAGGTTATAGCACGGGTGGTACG
3. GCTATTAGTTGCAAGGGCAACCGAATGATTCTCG
4. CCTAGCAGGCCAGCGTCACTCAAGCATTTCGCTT

1: -0.448; 2: -0.442; 3: -0.0244; 4: -0.436

* * *

For each of the sequences below, state its PBM binding z-score.
System: RARg:RXRa (NR concentration 270 nM, RXRa partner concentration 90 nM)
Assay: PBM binding z-score (relative to random genomic background probes); higher = stronger binding; sequences stand for … in GC…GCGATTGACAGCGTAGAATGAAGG

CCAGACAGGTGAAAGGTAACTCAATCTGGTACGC
1.48

Value sought for every listed sequence: PBM binding z-score.
1. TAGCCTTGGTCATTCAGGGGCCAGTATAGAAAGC
2. TCTTGTAGATCAACAGGAGGTGAAGAAAGATCGA
3. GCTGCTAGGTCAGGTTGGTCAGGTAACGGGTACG
4. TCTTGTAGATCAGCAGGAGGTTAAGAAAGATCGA
5. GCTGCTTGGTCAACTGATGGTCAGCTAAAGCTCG
6. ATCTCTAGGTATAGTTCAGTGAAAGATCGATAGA
7. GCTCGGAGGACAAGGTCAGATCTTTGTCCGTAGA

1. 2.02
2. 0.381
3. 2.59
4. 0.611
5. 0.828
6. 0.857
7. 3.19

* * *

Test system: LXRa:RXRa (NR concentration 270 nM, RXRa partner concentration 90 nM)
Experiment: PBM binding z-score (relative to random genomic background probes); higher = stronger binding; sequences stand for … in GC…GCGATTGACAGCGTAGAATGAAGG
For each of the sequences below, state its PBM binding z-score.

Some solved entries appear below for comparison.
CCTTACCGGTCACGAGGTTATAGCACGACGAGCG
3.04
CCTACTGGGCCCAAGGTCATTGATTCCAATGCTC
2.46
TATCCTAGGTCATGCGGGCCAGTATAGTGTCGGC
5.7
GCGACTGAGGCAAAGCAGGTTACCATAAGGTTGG
-0.493
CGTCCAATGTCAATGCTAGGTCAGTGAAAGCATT
0.781
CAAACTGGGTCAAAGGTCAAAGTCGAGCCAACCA
7.07
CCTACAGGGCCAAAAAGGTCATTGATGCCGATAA
4.32
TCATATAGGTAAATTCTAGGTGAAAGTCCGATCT
1

# get_value(readout='PBM binding z-score', item= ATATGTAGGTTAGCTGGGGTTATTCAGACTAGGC )
3.29

* * *

For each of the sequences below, state its PBM binding z-score.
Tested on: VDR homodimer (NR concentration 270 nM)
Assay: PBM binding z-score (relative to random genomic background probes); higher = stronger binding; sequences stand for … in GC…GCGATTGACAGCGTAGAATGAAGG
Give bare numbers.

Some solved entries appear below for comparison.
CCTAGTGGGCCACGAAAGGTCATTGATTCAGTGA
1.99
TCAGACAGGTAAAGGTAACTCAGGTACGCAGTCG
0.388
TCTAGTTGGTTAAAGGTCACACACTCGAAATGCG
2.78
CGTCCAAGGTCAAAGGTCAGTGCAGAGATGACGG
4.12

Kindly consider the entry below.
# get_value(readout='PBM binding z-score', item= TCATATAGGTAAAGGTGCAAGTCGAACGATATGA )
0.385

* * *

Tested on: RARa homodimer (NR concentration 270 nM)
Assay: PBM binding z-score (relative to random genomic background probes); higher = stronger binding; sequences stand for … in GC…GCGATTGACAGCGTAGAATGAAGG
measurement.type: PBM binding z-score
One number for each entry.

Some solved entries appear below for comparison.
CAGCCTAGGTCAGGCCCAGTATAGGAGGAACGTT
-0.629
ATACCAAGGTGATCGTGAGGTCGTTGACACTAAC
0.306
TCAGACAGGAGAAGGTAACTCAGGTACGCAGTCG
0.536
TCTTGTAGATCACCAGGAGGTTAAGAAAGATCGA
-0.698
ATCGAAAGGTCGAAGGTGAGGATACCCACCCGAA
0.541
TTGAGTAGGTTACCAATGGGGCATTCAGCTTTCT
0.0397

Value sought for every listed sequence: PBM binding z-score.
1. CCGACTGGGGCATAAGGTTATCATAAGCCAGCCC
2. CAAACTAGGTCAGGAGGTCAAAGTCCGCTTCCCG
3. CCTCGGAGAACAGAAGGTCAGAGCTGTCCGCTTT
4. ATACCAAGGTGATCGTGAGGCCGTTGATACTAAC
5. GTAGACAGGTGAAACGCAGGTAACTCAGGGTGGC
6. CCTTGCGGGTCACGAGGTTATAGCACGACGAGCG

[-0.22, 1.8, 0.634, -0.0475, -0.278, 0.851]
